# Tested on: Candida albicans
# protocol_details: Zone developed against Candida albicans, when a 25.0 ug/disc was added
# Format: functional
reported_endpoint: Zone size

1. C[C@H](N)C(=O)N[C@@H](C)C(=O)N[C@@H](C)C(=O)O.C[C@H](NC(=O)[C@@H](N)Cc1cccc(F)c1)C(=O)O
0 mm
2. C[C@H](NC(=O)[C@H](C)NC(=O)[C@@H](N)Cc1cccc(F)c1)C(=O)O.NCC(=O)N[C@@H](Cc1ccccc1)C(=O)O
0 mm
3. C[C@H](N)C(=O)N[C@@H](C)C(=O)N[C@@H](C)C(=O)O.C[C@H](NC(=O)[C@H](C)NC(=O)[C@@H](N)Cc1cccc(F)c1)C(=O)O
0 mm
4. C[C@H](N)C(=O)N[C@@H](C)C(=O)O.C[C@H](NC(=O)[C@H](C)NC(=O)[C@@H](N)Cc1cccc(F)c1)C(=O)O
24 mm
5. C[C@H](NC(=O)[C@@H](N)Cc1cccc(F)c1)C(=O)O.NCC(=O)N[C@@H](Cc1ccccc1)C(=O)O
0 mm
6. C[C@H](NC(=O)CN)C(=O)O.C[C@H](NC(=O)[C@H](C)NC(=O)[C@@H](N)Cc1cccc(F)c1)C(=O)O
25 mm
7. C[C@H](N)C(=O)N[C@@H](C)C(=O)O.C[C@H](NC(=O)[C@@H](N)Cc1cccc(F)c1)C(=O)O
0 mm
